# experimental_system: T1, human LILRA2 (human, UniProt Q8N149 24-483)
# T1 construct: whole, on cells; also called hLILRA2
# T1 sequence (Q8N149 24-483): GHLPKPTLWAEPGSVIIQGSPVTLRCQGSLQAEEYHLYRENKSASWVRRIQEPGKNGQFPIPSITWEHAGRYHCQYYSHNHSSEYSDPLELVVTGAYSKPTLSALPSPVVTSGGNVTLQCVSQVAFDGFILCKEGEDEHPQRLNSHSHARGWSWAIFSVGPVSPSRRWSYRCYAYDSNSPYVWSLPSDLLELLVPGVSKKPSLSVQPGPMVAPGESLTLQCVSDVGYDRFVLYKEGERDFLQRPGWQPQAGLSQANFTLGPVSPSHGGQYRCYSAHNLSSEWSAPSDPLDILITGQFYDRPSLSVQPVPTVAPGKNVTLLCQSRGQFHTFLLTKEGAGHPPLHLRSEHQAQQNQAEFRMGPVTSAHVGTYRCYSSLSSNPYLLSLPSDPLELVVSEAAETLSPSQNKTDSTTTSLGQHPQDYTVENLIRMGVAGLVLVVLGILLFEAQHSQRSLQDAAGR
# method: FACS, 293F-hLILRA2 cells
assay_metric: MFI (MFI)

binder="4-E6-E4-B12 (antibody, V domains shown, mouse monoclonal hybridoma antibody) VH: EVQLKESGAELVKPGASVKLSCKASGYTFTSHWMHWVKQRPGQGLEWIGEINPSNGRTNYNEKFTSKATLTVDQSSSTAYMQLSSLTSEDSAVYYCARGNLTTVVPFDYWGQGTALTVSS VL: DIVMTQSPSSLSASLGGKVTITCKASQDINKFIAWYQHKPGKGPRLLIHFTSTLQPGIPSRFSGSGSGRDYSFSISNLEPEDIATYFCLQYDLLLTFGGGTKLEIK" assay_metric=MFI numeric_readout=21.9
binder="43-D12-F3-G11 (antibody, V domains shown, mouse monoclonal hybridoma antibody) VH: EVQVVESGPGLVAPSQSLSITCTVSGFSLTSYGVSWVRQPPGKGLEWLGVIWADGSTNYHSALLSRLSISKDNSKSQVFLKLNSLQTDDTATYYCAKGHWDGFAYWGQGTLVAVSA VL: DIVLTQSPAIMSTSPGEKVTLTCSASSSITSSYLYWYQQKPGSSPKLWIYSTSNLASGVPARFSGSGSGTSYYLTISSMEAEDAASYFCHQWSSYPPTFGGGTKLELK" assay_metric=MFI numeric_readout=20
binder="7-B4-C1-C9 (antibody, V domains shown, mouse monoclonal hybridoma antibody) VH: EVQLQQSGTELVKPGASVKLSCKASGYTFTNYWMHWVKQRPGQGLEWIGEINPSNGRTNYNEKFKTKATLTVDKSSSTAYMQLSSLTSEDSAVYYCARSTYYGYDWYFDVWGAGTTVTVSS VL: DIVLTQSPSSMYASLGERVTITCKASQDINSYLSWFQQKPGKSPKTLIYRANRLLDGVPSRFSGGGSGQDYSLTISSLEHEDMGIYYCLQCDEFPHTFGGGTKLEIK" assay_metric=MFI numeric_readout=21.6
binder="25-E7-A10-H6 (antibody, V domains shown, mouse monoclonal hybridoma antibody) VH: EVQLVESGGGLVQPGGSRKLSCAASGFTFSTFGMHWVRQAPEKGLEWVAYISSGSSTIYYADTVKGRFTISRDNPKNTLFLQMTSLRSEDTAMYYCARSTGTGAMDYWGQGTSVTVSS VL: DIQMTQTTSSLSASLGDRVTISCRASQDISKYLNWYQQKPDGTVKLLIYYTSRLHSGVPSRFSGSGSGTDYSLTISNLEQEDIATYFCQQGNTLPWTFGGGTKLEIK" assay_metric=MFI numeric_readout=21
